B1: C8orf76 (parent)
chain: YCAKLCEPQWFYEETESSDDVEVL

Variants of: B1
Assay: protein stability index of a GFP-peptide fusion (GPS, HEK-293T) (PSI 1-6); higher = more stable;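 note: lentivirally expressed fusions sorted by FACS into six bins by GFP to DsRed ratio, PSI derived from sequencing read proportions per bin multiplied by bin number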
Conditions: c terminus: a fixed tail appended
Label criterion not met if protein stability index falls below 2; label criterion met in every other case.

> print(dat)
               sequence.text        class.label
 1  HCAKLCEPQWFYEETESSDDVEVL      criterion met
 2  YCAKLCEPQWTYEETESSDDVEVL      criterion met
 3  YCAKLCEPQWFYEETESGDDVEVL      criterion met
 4  YCAKLCEPQWFYEETESSDDVEGL      criterion met
 5  YCAKLCEPQWFYEETESSDDVCVL      criterion met
 6  YCAKRCEPQWFYEETESSDDVEVL      criterion met
 7  YCAILCEPQWFYEETESSDDVEVL      criterion met
 8  YCAKLCEPQWFYGETESSDDVEVL  criterion not met
 9  YCAKLCEPQWFYEETESSDDVHVL      criterion met
10  YCAKLCEPQWFYEETESSDDFEVL      criterion met
11  YCAKLCEPQWFYEETESSDSVEVL      criterion met
12  YCAKLTEPQWFYEETESSDDVEVL  criterion not met
13  YCQKLCEPQWFYEETESSDDVEVL      criterion met
14  YCATLCEPQWFYEETESSDDVEVL      criterion met
15  YCAKLGEPQWFYEETESSDDVEVL  criterion not met
16  YCAKLCEPQWFYEITESSDDVEVL  criterion not met
17  YCAKLCEPQWFYEETESSDDVEVI      criterion met
18  YCAKLAEPQWFYEETESSDDVEVL      criterion met
19  YCAKLCEPQWFYEETEASDDVEVL      criterion met
20  YCAKLCDPQWFYEETESSDDVEVL      criterion met
21  YCAKLCEPQWFYEETEMSDDVEVL      criterion met
22  YCAKLCEPQWFYFETESSDDVEVL      criterion met
23  YCAKLCEPQWFYEETEESDDVEVL      criterion met
24  YCAKLCEPQWFYEEHESSDDVEVL      criterion met

The values you see were collected from the supplement of paper PMC10567573.
